Ref: patent US12351570B2

tested on: MDA-MB-231 cells; test: Extracellular lactate production inhibition after 4 h, MDA-MB-231; conditions: Homo sapiens, MDA-MB-231, read-out: IC50 (MDA-MB231)
assay endpoint: IC50

Task: State IC50 (MDA-MB-231 cells) of COc1ccc(S(=O)(=O)Nc2ccccc2C#Cc2ccc(C(=O)N(C)C)nc2)c2ncccc12 .
Result: < 1000 nM

Now take the following compound into account.
Task: State IC50 (MDA-MB-231 cells) of Cc1ccc2cccnc2c1S(=O)(=O)Nc1ccccc1C#Cc1cnc(C(=O)O)c2ccccc12 .
Result: < 1000 nM

====

test system: SNU398 cells; assay: Extracellular lactate production inhibition after 4 h, SNU398; conditions: Homo sapiens, SNU-398, read-out: IC50 (SNU-398)
assay endpoint: IC50

Task: Look up and state reported IC50 for Cc1ccc2cccnc2c1S(=O)(=O)Nc1ccccc1C#Cc1cnc(C(=O)O)c2ccccc12
Result: < 1000 nM

Now take the following compound into account.
Task: Look up and state reported IC50 for COc1ccc(S(=O)(=O)Nc2ccccc2C#Cc2ccc(C(=O)N(C)C)nc2)c2ncccc12
Result: < 1000 nM

====

Answer each item with its documented pIC50.
tested on: MIA PaCa-2 cells; experiment: Extracellular lactate production inhibition after 4 h, MIA PaCa-2; conditions: Homo sapiens, MIA PaCa-2, read-out: IC50 (MiaPACa)
pIC50: −log10 of the molar value.

Task: State pIC50 (MIA PaCa-2 cells) of COc1ccc(S(=O)(=O)Nc2ccccc2C#Cc2ccc(C(=O)N(C)C)nc2)c2ncccc12 .
Result: > 6.00

Now take the following compound into account.
Task: State pIC50 (MIA PaCa-2 cells) of Cc1ccc2cccnc2c1S(=O)(=O)Nc1ccccc1C#Cc1cnc(C(=O)O)c2ccccc12 .
Result: > 6.00
